Assay procedure: S. cerevisiae growth inhibition in permissive medium (OD615), pilot counter-assay for S. cerevisiae lifespan shortening project, permissive growth control (AID 705)
Condition summary: OD615, 24 h, at 10 µM, stronger effect = higher value
# key: entry, value: growth inhibition
Parameter measured: growth inhibition (%)

Molecule	Observed
O=C(CSc1nnc2ccccn12)N1CCc2ccccc2C1	-8.87
CCCOC(=O)CC1C(=O)NCCN1Cc1ccccc1C (stereo not given)	-20.8
CCc1ccccc1NC(=O)c1cnc2n(c1=O)CCS2	-7.06
CCN(CC)C(=O)Oc1ccccc1NC(C)=O	1.79
COc1ccc(C2c3c(oc4ccccc4c3=O)C(=O)N2c2ccc(C)cn2)cc1OC (stereo not given)	-7.72
COc1ccccc1NC1=C(C)C(=O)CC1	-1.07
C=C(C)Cn1c(N2CC(C)CC(C)C2)nc2c1c(=O)[nH]c(=O)n2C (stereo not given)	-5.73
O=C(c1cc2ccccn2n1)N1CCN(Cc2ccccc2)CC1	1.21
CC1CC(C)CN(Cc2nc3c(c(=O)n(C)c(=O)n3C)n2Cc2ccccc2Cl)C1 (stereo not given)	2.67
O=C(Nc1nc2ccc(Cl)cc2s1)c1ccc(Br)o1	-6.29
Cn1c(=O)oc2cc(S(=O)(=O)N3CCCC(C(=O)NCC4COc5ccccc5O4)C3)ccc21 (stereo not given)	-11.9
CCOC(=O)CC1C(=O)NCCN1Cc1cccc(OC)c1 (stereo not given)	-12.5
COc1ccc(C(=O)NCC(=O)NC2=NCCS2)cc1	-1.83
O=P(O)(CCc1ccccc1)CN1CCCCC1	-2.51
COc1ccc(S(=O)(=O)N(C)C2CCN(C)CC2)cc1	-6.05

---

Assay procedure: viability of PTEN-null HCT116 cells – cell-based, HCT116 clonal line, CellTiter-Glo, pilot screen (AID 824);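 note: 0% = 20 µM Hyamine control and 100% = vehicle cell control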
Condition summary: HCT116 PTEN-deleted viability, 60 h, at 10 µM, stronger effect = lower value
Records with an inconclusive call do not appear.
# key: entry, value: viability

Compound	viability, %
CC(=O)Nc1ccc(S(=O)(=O)Nc2nc3c(s2)CCCC3)cc1	90.7
CCOC(=O)c1ccccc1NC(=O)C1COc2ccccc2O1 (stereo not given)	87.8
CCN(CC)CCN1C(=O)c2oc3ccc(F)cc3c(=O)c2C1c1ccncc1 (stereo not given)	95.9
Cc1onc(-c2ccccc2Cl)c1C(=O)N1CCc2ccccc21	87.1
O=C(NCCSc1c[nH]c2ccccc12)c1ccc(Br)o1	93.6

---

Assay procedure: doxorubicin toxicity protection in MRP-1 cells – H69AR cells, CellTiter-Glo, duplicate, MRP-1 activator project, pilot screen (AID 807);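 note: compound pretreatment 18-22 h then 72 h combined with doxorubicin; 0% = doxorubicin alone and 100% = vehicle without doxorubicin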
Condition summary: H69AR viability with doxorubicin, CellTiter-Glo luminescence; at 10 µM; stronger effect = higher value
# key: entry, value: viability increase

Compound	viability increase (%)
CCCCNC(=O)CCCn1c(=O)[nH]c2ccc(Br)cc2c1=O	-0.78
CC(C)Sc1nnc(Cn2c(=O)sc3ccccc32)n1-c1ccccc1	-0.05
C=CCOc1ccc(/C(CC)=N/O)c(OC)c1	-0.09
COc1ccc(C2C(C(C)=O)=C(O)C(=O)N2CCN(C)C)cc1OC (configuration not stated)	0.21
CCCC(=O)c1ccc(N2CCCCCC2)c(F)c1	3.64
O=C(CCCn1c(=O)[nH]c2ccsc2c1=O)N1CCN(c2ccccn2)CC1	-4.76
Cc1cc2cc(CNC(=O)c3ccco3)ccc2n1C	-4.26

---

Assay procedure: viability of HCT116 without oncogenic beta-catenin – human colon tumor cells, pilot screen (AID 823);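 note: 0% = wells killed by 20 µM Hyamine and 100% = untreated DMSO cell wells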
Condition summary: HCT116 beta-catenin knockout viability, CellTiter-Glo, 60 h; at 10 µM; stronger effect = lower value
Inconclusive results are not listed.

Compound	viability / %
Cc1ccc(C)c2[nH]c(=O)c(CCNC(=O)CC(C)(C)C)cc12	104
COc1cccc(-c2nnc(NC(=O)c3ccccc3Br)o2)c1	71.7
CCOC(=O)N1CCN(C(=O)c2cc3c(=O)n(C)c4ccccc4c3n2C)CC1	94.6
COC(=O)CSc1nnc(-c2ccncc2)o1	93.2
Cc1ccc(OCCSc2cc(C)nc(N)n2)cc1	95.6
COc1ccc(C2CC(c3ccco3)n3ncnc3N2)cc1 (stereo unspecified)	97.7
COc1ccc(-c2nc(N3CCCC3)[nH]c(=O)c2C#N)cc1	104
Cc1c(NC(=O)c2ccc(Br)o2)c(=O)n(-c2ccccc2)n1C	97.7
CCCn1c(=O)c(C(=O)NCc2ccccn2)c(O)c2ccccc21	87.4
O=C(c1cnc2n(c1=O)CCS2)N1CCc2ccccc21	97
Cn1c(C(=O)NCC2CCCO2)cc2c(=O)n(C)c3ccccc3c21 (stereo unspecified)	92.9
CCOC(=O)c1csc(NC(=O)C2CCCCC2)n1	91.4
CCSc1nnc(N2C(=O)CC(c3ccsc3)C3=C2CC(C)(C)CC3=O)s1 (stereo unspecified)	103
COC(=O)Cn1c(CN2CCN(c3ccccc3F)CC2)nc2c1c(=O)n(C)c(=O)n2C	97.4
CCOc1ccccc1NC(=O)CSc1nnc(-c2ccccn2)n1Cc1ccco1	96.9
COc1ccc(S(=O)(=O)N2CCC(C(=O)Nc3c(F)cccc3F)CC2)cc1	99.6
CCOc1ccc(N=CC2=C(O)CC(C)(C)CC2=O)cc1	92
CC(=O)Nc1cccc(NC(=O)c2ccco2)c1	99.6
COc1ccc(Cl)cc1S(=O)(=O)n1ccnc1C(C)C	102
CCn1cc(C(=O)N2CCn3c(nc4ccccc43)C2)c(=O)c2ccc(C)nc21	104
COC(=O)c1ccc(-c2nn(C)c(=O)c3ccccc23)cc1	94.3

---

Assay procedure: H69AR cell proliferation blockers – human, duplicate replicates, primary screen (AID 580);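 note: 100% = mean luminescence of untreated wells and 0% = no signal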
Condition summary: H69AR lung tumor cells viability, ATP luminescence, 72 h; at 10 µM; stronger effect = lower value

Molecule	viability, %
O=C(c1cc(C2CC2)on1)N1CCN(C(c2ccccc2)c2ccccc2)CC1	87.7
CC(c1ccccc1)n1cnc2ccccc21 (stereo not given)	93.5
COc1ccc(-n2c(=O)c3c4c(sc3n3cnnc23)CC(C)CC4)cc1 (stereo not given)	72.2
CCOC(=O)N1CCN(C(c2ccc(Cl)cc2)c2sc3nc(C)nn3c2O)CC1 (stereo not given)	94.7
COCCCNC(=O)c1ccc(CS(=O)(=O)c2ccc(OC)cc2)o1	91.6
Cn1c(=O)c2c(nc(CN3CCc4ccccc4C3)n2Cc2cccc(Cl)c2)n(C)c1=O	31.2
Cc1nonc1NC(=O)c1ccccc1Br	91.8
O=C(C1CCCN(S(=O)(=O)c2cccnc2)C1)N1CCn2c1nc1ccccc12 (stereo not given)	95.8
CC1CCCCN1S(=O)(=O)c1ccc(NC(=O)c2cccs2)cc1 (stereo not given)	85.5
Cc1c(C#N)c2ncnc(-c3ccccc3)c2n1-c1ccccc1	71.8
Cc1ccc(C)c(S(=O)(=O)n2cnc3ccccc32)c1	99
CCCOc1ccc(NC2=CC(=O)CC(C)(C)C2)cc1	100
CN(C)CCN1C(=O)C(O)=C(C(=O)c2cc3ccccc3o2)C1c1ccc(N(C)C)cc1 (stereo not given)	90.2
CN1CCN(c2nc3c(c(=O)[nH]c(=O)n3C)n2CCSc2nc3ccccc3s2)CC1	75.2
O=C1c2ccccc2C(Nc2cccnc2)N1Cc1ccccc1Cl (stereo not given)	86.3
Cc1ccc(S(=O)(=O)C(C#N)c2nc3ccccc3nc2N2CCCCC2)cc1 (stereo not given)	92
Cn1c(SCC(=O)Nc2ccc(F)cc2)nnc1-c1cccnc1	104
O=C(c1cnc2n(c1=O)CCS2)N1CCc2ccccc21	101
CCOCCn1c(CN2CCN(CC)CC2)nc2c1c(=O)n(C)c(=O)n2C	91.8
Cc1cc(C(N)=O)c2cc(Br)ccc2n1	91.2

---

# key: entry, value: viability
Assay procedure: MRP1 drug-resistance reversers in H69AR cells – cell-based, doxorubicin co-treatment, pilot screen (AID 601)
Condition summary: H69AR cells + 2 uM doxorubicin, CellTiter-Glo, 72 h; measured here: viability with 2 uM doxorubicin; at 10 µM; stronger effect = lower value

Compound	viability (%)
CC(C)(C)SCCNC(=O)CSc1ccccc1	91
O=C1CCCCCC1C1(O)C(=O)Nc2ccccc21 (stereo not given)	94.4
CN(C)c1ccc(C(=O)Nc2nnc(-c3ccc(Cl)cc3)o2)cc1	81.2
CCCCn1c(CN2CCN(c3ccc(F)cc3)CC2)nc2c1c(=O)n(C)c(=O)n2C	99.3
O=C(Nc1ccc2c(c1)OCCO2)NC1CCCCC1	82.7
Cc1noc(C)c1CSc1ccccc1C(=O)N1CCN(c2ccccc2)CC1	88.2
O=C(NCc1cccs1)C(Cc1ccccc1)n1cccc1 (stereo not given)	86
Cc1cc(C)nc(NC2=NCC(=O)N2c2ccccc2Br)n1	100
N#Cc1c2n(c(=O)[nH]c1=O)CCCCC2	99.7
Oc1ccc2ccccc2c1CN1CCN(c2ccccc2F)CC1	73.5
O=C(NCc1ccc2c(c1)OCO2)C1CCCN(S(=O)(=O)c2cccc3cccnc23)C1 (stereo not given)	78.1
COc1cccc(C2CC(c3ccc(C)cc3)Nc3nc(N)nn32)c1 (stereo not given)	93.9
CCOC(=O)N1CCN(C(=O)CSc2nnc(COc3ccccc3)o2)CC1	88.2
O=C(CSc1nnc2ccccn12)c1ccccc1	80.3
Cc1[nH]nc2c1C(=O)CC(C)(C)C2	83.7
Cc1nc2sc(C(c3cccs3)N3CC(C)CC(C)C3)c(O)n2n1 (stereo not given)	93.8
Cc1nnc(NC(=O)CSc2nc3c(c(=O)n2C)SC(C)C3)s1 (stereo not given)	80
COC(=O)C1=C(C)NC(C)=C(C(=O)OC)C1C1CC=CCC1 (stereo not given)	77.1
Cc1nonc1NC(=O)c1ccccc1Br	86.8
CC1=C(C(=O)OCc2ccccc2)C(c2ccco2)n2ncnc2N1 (stereo not given)	88.7

Values from PubChem BioAssay
